Values compiled from patent US20190359687A1.

Each entry below lists one item and its recorded binding in ELISA relative to parental Fab value.
assay_system: T1, recombinant human glycophorin A ectodomain protein (human, UniProt P02724 20-91)
T1 construct: 72 amino acids of the extracellular region; also called Hu-rec GPA
T1 sequence: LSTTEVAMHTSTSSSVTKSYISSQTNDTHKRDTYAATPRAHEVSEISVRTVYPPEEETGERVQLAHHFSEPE
protocol_text: ELISA, Fab on coated recombinant human GPA ectodomain
property: binding in ELISA relative to parental Fab

[
  {
    "binder": "TPP-5337, Hu6C12-24 Fab variant VH: (Q97A, T98R) (Fab, V domains shown, Built on the parental Fab TPP-4935) VH: EVQLVQSGAEVKKPGASVKVSCKASGYTFTTYTIHWVRQAPGQGLEWIGYINPSSDYTRYNPKFKDRVTLTTDKSTSTAYMELRSLRSDDTAVYYCARGTRDYWGQGTTVTVSS VL: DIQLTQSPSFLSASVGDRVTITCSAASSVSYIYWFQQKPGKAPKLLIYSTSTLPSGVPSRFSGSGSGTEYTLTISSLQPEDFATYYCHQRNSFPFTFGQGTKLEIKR",
    "result_value": "0.1 relative to parental Fab"
  },
  {
    "binder": "TPP-5837, Hu6C12-24 Fab variant VL: (S24R, A26S, S49A, P54Q, F95Y); VH: (I48M, D66G) (Fab, V domains shown, Built on the parental Fab TPP-4935) VH: EVQLVQSGAEVKKPGASVKVSCKASGYTFTTYTIHWVRQAPGQGLEWMGYINPSSDYTRYNPKFKGRVTLTTDKSTSTAYMELRSLRSDDTAVYYCQTGTRDYWGQGTTVTVSS VL: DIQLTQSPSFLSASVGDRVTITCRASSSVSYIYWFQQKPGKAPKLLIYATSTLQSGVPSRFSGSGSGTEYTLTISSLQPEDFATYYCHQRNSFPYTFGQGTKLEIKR",
    "result_value": "4.5 relative to parental Fab"
  },
  {
    "binder": "TPP-5842, Hu6C12-24 Fab variant VL: (S24R, A26S, S49A, P54Q, F95Y); VH: (D66G, L70M, T72R) (Fab, V domains shown, Built on the parental Fab TPP-4935) VH: EVQLVQSGAEVKKPGASVKVSCKASGYTFTTYTIHWVRQAPGQGLEWIGYINPSSDYTRYNPKFKGRVTMTRDKSTSTAYMELRSLRSDDTAVYYCQTGTRDYWGQGTTVTVSS VL: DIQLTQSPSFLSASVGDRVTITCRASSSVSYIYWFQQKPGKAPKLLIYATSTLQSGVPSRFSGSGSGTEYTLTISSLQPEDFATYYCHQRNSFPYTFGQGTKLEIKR",
    "result_value": "4.7 relative to parental Fab"
  }
]
